Each recorded value in this set is attributed to patent US20260109731A1.

- ASSAY INFO: Pharmacokinetic analysis of tail vein administration in female rats
- STUDY CONDITIONS: female, SD, rat, brain/plasma, intravenous, 3 mg/kg
MEASUREMENT LABEL: Kp at 8 h

Ask | Hello, please tell me recorded Kp at 8 h for this one: CC(=O)[C@H]1CC[C@H]2[C@@H]3CC[C@H]4C[C@H](O[N+](=O)[O-])CC[C@]4(C)[C@H]3CC[C@]12C
Reply | 6.68

###

- ASSAY INFO: Pharmacokinetic analysis of oral administration to male rats
- Type: in vivo
- STUDY CONDITIONS: male, SD, rat, plasma, po, 12 mg/kg, oral gavage 12 mg/kg, 1 h, individual rats 1-7, read-out: Blood drug concentration
MEASUREMENT LABEL: concentration at 1 h (ng/mL)
Give bare numbers, in ng/mL.

Ask | Hello, please tell me recorded concentration at 1 h for this one: CC(=O)[C@H]1CC[C@H]2[C@@H]3CC[C@H]4C[C@H](O)CC[C@]4(C)[C@H]3CC[C@]12C [Allopregnanolone, 5α-pregnan-3α-ol-20-one, reference compound]
Reply | 0
